target: p38α MAP kinase (Homo sapiens); test: phosphorylation of myelin basic protein (MBP) by p38α; type: biochemical; conditions: inhibition of MBP phosphorylation by p38α
Sequence (Q16539 whole entry): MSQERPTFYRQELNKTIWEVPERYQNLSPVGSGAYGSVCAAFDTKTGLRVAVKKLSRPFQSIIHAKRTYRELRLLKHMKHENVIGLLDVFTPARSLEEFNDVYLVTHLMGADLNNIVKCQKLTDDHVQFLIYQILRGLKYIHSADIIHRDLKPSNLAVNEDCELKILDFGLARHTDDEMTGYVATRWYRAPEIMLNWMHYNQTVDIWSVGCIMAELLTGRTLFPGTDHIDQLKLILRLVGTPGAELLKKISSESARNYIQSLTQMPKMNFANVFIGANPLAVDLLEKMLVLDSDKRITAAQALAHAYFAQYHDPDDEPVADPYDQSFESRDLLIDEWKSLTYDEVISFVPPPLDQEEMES
pIC50: −log10 of the molar value.
MEASURED_METRIC: pIC50

COMPOUND_STRUCTURE_STRING	OBSERVED
O=C(O)c1ccc(CCCCCCSCc2cc(-n3cnc4cc(C(=O)O)ccc43)ccc2F)cc1	5.77
